- target or system: IDO1 (Homo sapiens)
- Sequence (P14902 whole entry): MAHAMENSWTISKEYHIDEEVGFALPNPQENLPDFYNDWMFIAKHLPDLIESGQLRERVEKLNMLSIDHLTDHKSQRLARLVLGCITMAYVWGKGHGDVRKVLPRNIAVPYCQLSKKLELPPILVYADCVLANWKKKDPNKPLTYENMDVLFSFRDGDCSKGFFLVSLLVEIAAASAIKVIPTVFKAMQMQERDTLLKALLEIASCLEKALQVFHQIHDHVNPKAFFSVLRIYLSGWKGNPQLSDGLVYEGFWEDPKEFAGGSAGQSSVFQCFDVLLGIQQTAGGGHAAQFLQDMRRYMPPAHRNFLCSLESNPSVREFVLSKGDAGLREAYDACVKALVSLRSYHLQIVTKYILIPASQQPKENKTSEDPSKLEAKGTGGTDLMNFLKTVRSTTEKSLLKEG
measurement label: EC50 (nM)

[[record]]
compound = "c1ccc2c(c1)-c1cncn1[C@H]2C1CCCCC1 [Example 19b]"
measurement_label = "EC50"
value_unit = "nM"
quantitative_result = 416


----------
- target or system: TDO2 (Homo sapiens)
- Sequence (P48775 whole entry): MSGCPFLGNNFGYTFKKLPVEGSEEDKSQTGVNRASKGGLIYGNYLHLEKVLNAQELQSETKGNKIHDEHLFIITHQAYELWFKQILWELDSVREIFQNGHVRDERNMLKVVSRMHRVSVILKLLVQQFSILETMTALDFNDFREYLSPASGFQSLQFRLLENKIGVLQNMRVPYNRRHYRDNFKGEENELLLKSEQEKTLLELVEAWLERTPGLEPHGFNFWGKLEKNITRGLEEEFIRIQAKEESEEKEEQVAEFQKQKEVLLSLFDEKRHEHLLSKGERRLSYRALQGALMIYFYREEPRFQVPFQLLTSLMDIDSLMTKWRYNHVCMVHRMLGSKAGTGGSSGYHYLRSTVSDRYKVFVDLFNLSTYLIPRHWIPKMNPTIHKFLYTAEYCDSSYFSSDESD
- experimental protocol: cell-based
Please note: EC50 exactly at 2000 nM is NOT MET. Only values below 2000 nM get MET.

[[record]]
molecule = "CS(=O)(=O)N1CC2(CCC(C3c4ccccc4-c4cncn43)CC2)C1 (single isomer, unassigned) [Example 78a]"
label = "NOT MET"

[[record]]
molecule = "CCS(=O)(=O)Nc1cc2n(n1)CCC(C1c3ccccc3-c3cncn31)=C2 (centres unmarked)"
label = "MET"

[[record]]
molecule = "CS(=O)(=O)N1CCC(C2c3ccccc3-c3cncn32)CC1 (centres unmarked)"
label = "MET"

[[record]]
molecule = "Cn1cc(C2c3ccccc3-c3cncn32)ccc1=O (single isomer, unassigned) [Example 84b]"
label = "MET"

[[record]]
molecule = "Cn1cc(C2c3ccccc3-c3cncn32)cn1 (single isomer, unassigned) [Example 79a]"
label = "NOT MET"

[[record]]
molecule = "c1ccc2c(c1)-c1cncn1C2C1CCn2nccc2C1 (single isomer, unassigned) [Example 05a]"
label = "MET"

[[record]]
molecule = "Fc1cc(C2c3ccccc3-c3cncn32)cc(F)c1F (centres unmarked)"
label = "MET"

[[record]]
molecule = "CC(O)c1cccc(C2c3ccccc3-c3cncn32)c1 (single isomer, unassigned) [Example 10b]"
label = "NOT MET"

[[record]]
molecule = "CS(=O)(=O)N1CCCC(C2c3ccccc3-c3cncn32)C1 (centres unmarked)"
label = "MET"

[[record]]
molecule = "NS(=O)(=O)N1CC2C(C1)C2C1c2ccccc2-c2cncn21 (centres unmarked)"
label = "MET"

[[record]]
molecule = "CC(O)c1cccc(C2c3ccccc3-c3cncn32)c1 (single isomer, unassigned) [Example 10c]"
label = "MET"

[[record]]
molecule = "c1ccc2c(c1)-c1cncn1C2C1CCc2ccncc2C1 (centres unmarked)"
label = "MET"

[[record]]
molecule = "CS(=O)(=O)c1ccc(C2c3ccccc3-c3cncn32)cc1 (centres unmarked)"
label = "MET"

[[record]]
molecule = "Fc1cc(Cl)cc(C2c3ccccc3-c3cncn32)c1 (centres unmarked)"
label = "MET"

[[record]]
molecule = "CS(=O)(=O)C1CCC(C2c3ccccc3-c3cncn32)CC1 (single isomer, unassigned) [Example 83a]"
label = "NOT MET"

[[record]]
molecule = "CC(C)(C)OC(=O)N1CC2(CCC(C3c4ccccc4-c4cncn43)CC2)C1 (centres unmarked)"
label = "MET"

[[record]]
molecule = "OCc1ccc(F)c(C2c3ccccc3-c3cncn32)c1 (centres unmarked)"
label = "MET"

[[record]]
molecule = "CS(=O)(=O)C1CCC(C2c3ccccc3-c3cncn32)CC1 (single isomer, unassigned) [Example 83b]"
label = "MET"

[[record]]
molecule = "c1ccc2c(c1)-c1cncn1C2c1cnn2c1CCC2 (centres unmarked)"
label = "NOT MET"

[[record]]
molecule = "OCc1cc(F)cc(C2c3ccccc3-c3cncn32)c1 (single isomer, unassigned) [Example 09b]"
label = "MET"

[[record]]
molecule = "NC(=O)c1cc(F)cc(C2c3ccccc3-c3cncn32)c1 (centres unmarked)"
label = "MET"

[[record]]
molecule = "Cc1cccc(C2c3ccccc3-c3cncn32)c1 (centres unmarked) [Example 21, 5-(m-tolyl)-5H-imidazo[5,1-a]isoindole]"
label = "MET"

[[record]]
molecule = "O=S(=O)(NC1CC1)N1CCC(C2c3ccc(F)cc3-c3cncn32)CC1 (centres unmarked)"
label = "MET"

[[record]]
molecule = "CC1(O)CCC(C2c3ccccc3-c3cncn32)CC1 (centres unmarked)"
label = "MET"

[[record]]
molecule = "NC(=O)C1(CC2c3ccccc3-c3cncn32)CC1 (centres unmarked)"
label = "NOT MET"

[[record]]
molecule = "NS(=O)(=O)c1cccc(C2c3ccccc3-c3cncn32)c1 (single isomer, unassigned) [Example 07a]"
label = "NOT MET"

[[record]]
molecule = "CS(=O)(=O)N1CC2(CC(C3c4ccccc4-c4cncn43)C2)C1 (single isomer, unassigned) [Example 72a]"
label = "MET"

[[record]]
molecule = "CS(=O)(=O)N1CC2(CC(C3c4ccccc4-c4cncn43)C2)C1 (single isomer, unassigned) [Example 72b]"
label = "NOT MET"

[[record]]
molecule = "OCc1cccc([C@@H]2c3ccccc3-c3cncn32)c1 [Example 01a]"
label = "NOT MET"

[[record]]
molecule = "OCc1cccc([C@H]2c3ccccc3-c3cncn32)c1 [Example 01b]"
label = "MET"

[[record]]
molecule = "C1=C(C2c3ccccc3-c3cncn32)CCn2cccc21 (centres unmarked)"
label = "NOT MET"

[[record]]
molecule = "c1ccc2c(c1)-c1cncn1C2C1CC2(COC2)C1 (centres unmarked)"
label = "MET"

[[record]]
molecule = "CNS(=O)(=O)c1cccc(C2c3ccccc3-c3cncn32)c1 (centres unmarked)"
label = "MET"

[[record]]
molecule = "CC1(C)CC(C2c3ccccc3-c3cncn32)C1 (centres unmarked)"
label = "MET"

[[record]]
molecule = "NC(=O)C1CCC(C2c3ccccc3-c3cncn32)CC1 (single isomer, unassigned) [Example 60d]"
label = "NOT MET"

